# System: PSMA-expressing LNCAP cancer xenografts
# Method summary: Biodistribution and tumor-to-background contrast ratios of 18F-labeled tracers
# Format: in vivo, mouse (NODSCID 1L2RγKO male mice)
# Measurement parameters: 1 h
Measurement name: Biodistribution Bone (% ID/g)
Please reply with the bare figure in % ID/g and do not write the unit itself.

Form field: Biodistribution Bone recorded for `C[N+](C)(Cc1ccc(C(=O)NCCCC[C@H](NC(=O)N[C@@H](CCC(=O)O)C(=O)O)C(=O)O)cc1)C[B-](F)(F)[18F]` with PSMA-expressing LNCAP cancer xenografts (enter value)
0.36

What about this compound? O=C(O)CC[C@H](NC(=O)N[C@@H](CCCCNC(=O)[C@H](Cc1ccc2ccccc2c1)NC(=O)[C@H]1CC[C@H](CNC(=O)Cn2cc(C[n+]3ccc([B-](F)(F)[18F])cc3)nn2)CC1)C(=O)O)C(=O)O [^18F-PSMA-617-PyrBF3]
0.54

Queued: O=C(O)CC[C@H](NC(=O)N[C@@H](CCCCNC(=O)c1ccc(Cn2cc(C[n+]3ccc([B-](F)(F)[18F])cc3)nn2)nc1)C(=O)O)C(=O)O [^18F-PSMA PyrBF3]
0.76

// same read-out, input: C[N+](C)(Cc1cn(Cc2ccc(C(=O)NCCCC[C@H](NC(=O)N[C@@H](CCC(=O)O)C(=O)O)C(=O)O)cn2)nn1)C[B-](F)(F)[18F] [^18F-HTK01130]
0.22

###

# Test system: PSMA-expressing LNCAP cancer xenografts
# Method summary: Biodistribution and tumor-to-background contrast ratios of 18F-labeled tracers
# Type: in vivo, mouse (NODSCID 1L2RγKO male mice)
# Measurement parameters: 1 h
# Procedure: LNCap cell line was obtained from ATCC (LNCaP clone FGC, CRL-1740). It was established from a metastatic site of left supraclavicular lymph node of human prostatic adenocarcinoma. […] The collected cells number was counted with a Hausser Scientific (Horsham, Pa.) Hemacytometer. […] PET imaging experiments were conducted using Siemens Inveon micro PET/CT scanner. […] Then, a 10-min static PET imaging was performed to determined uptake in tumor and other organs. […]
Measurement name: Biodistribution Bone
Give me the value, and tack the unit on after it.

Worked cases, answers included:
Molecule: C[N+](C)(Cc1cn(CC(=O)NCCOCCOCCC(=O)N[C@@H](Cc2ccc3ccccc3c2)C(=O)NCCCC[C@H](NC(=O)N[C@@H](CCC(=O)O)C(=O)O)C(=O)O)nn1)C[B-](F)(F)[18F] [^18F-HTK01146]
Measurement name: Biodistribution Bone
Obs value: 0.10 ± 0.07 % ID/g

Molecule: C[N+](C)(Cc1cn(Cc2ccc(C(=O)NCCCC[C@H](NC(=O)N[C@@H](CCC(=O)O)C(=O)O)C(=O)O)cc2)nn1)C[B-](F)(F)[18F]
Measurement name: Biodistribution Bone
Obs value: 0.44 ± 0.09 % ID/g

Recorded Biodistribution Bone for C[N+](C)(Cc1cn(CC(=O)NC[C@H]2CC[C@H](C(=O)N[C@@H](Cc3ccc4ccccc4c3)C(=O)NCCCC[C@H](NC(=O)N[C@@H](CCC(=O)O)C(=O)O)C(=O)O)CC2)nn1)C[B-](F)(F)[18F] [^18F-HTK01157] , please?
0.34 ± 0.14 % ID/g

###

# Tumor:Muscle contrast ratio listing for each entry below
# Tested on: PSMA-expressing LNCAP cancer xenografts
# Method summary: Biodistribution and tumor-to-background contrast ratios of 18F-labeled tracers
# Format: in vivo, mouse (NODSCID 1L2RγKO male mice)
# Measurement parameters: 1 h
Reply: number alone, nothing else.

Past entries and their recorded results:
Compound: O=C(O)CC[C@H](NC(=O)N[C@@H](CCCCNC(=O)[C@H](Cc1ccc2ccccc2c1)NC(=O)[C@H]1CC[C@H](CNC(=O)Cn2cc(C[n+]3ccc([B-](F)(F)[18F])cc3)nn2)CC1)C(=O)O)C(=O)O [^18F-PSMA-617-PyrBF3]
Test target: PSMA-expressing LNCAP cancer xenografts
Measurement name: Tumor:Muscle contrast ratio
Obs value: 145
//
Compound: C[N+](C)(Cc1ccc(C(=O)NCCCC[C@H](NC(=O)N[C@@H](CCC(=O)O)C(=O)O)C(=O)O)cc1)C[B-](F)(F)[18F]
Test target: PSMA-expressing LNCAP cancer xenografts
Measurement name: Tumor:Muscle contrast ratio
Obs value: 23.4
//
Compound: C[N+](C)(Cc1cn(Cc2ccc(C(=O)NCCCC[C@H](NC(=O)N[C@@H](CCC(=O)O)C(=O)O)C(=O)O)cc2)nn1)C[B-](F)(F)[18F]
Test target: PSMA-expressing LNCAP cancer xenografts
Measurement name: Tumor:Muscle contrast ratio
Obs value: 37.3
//
Compound: O=C(O)CC[C@H](NC(=O)N[C@@H](CCCCNC(=O)c1ccc(Cn2cc(C[n+]3ccc([B-](F)(F)[18F])cc3)nn2)nc1)C(=O)O)C(=O)O [^18F-PSMA PyrBF3]
Test target: PSMA-expressing LNCAP cancer xenografts
Measurement name: Tumor:Muscle contrast ratio
Obs value: 23.5

Which Tumor:Muscle contrast ratio value is on record for C[N+](C)(Cc1cn(CC(=O)NCCOCCOCCC(=O)N[C@@H](Cc2ccc3ccccc3c2)C(=O)NCCCC[C@H](NC(=O)N[C@@H](CCC(=O)O)C(=O)O)C(=O)O)nn1)C[B-](F)(F)[18F] [^18F-HTK01146] ?
117

Could you do the same for C[N+](C)(Cc1cn(Cc2ccc(C(=O)NCCCC[C@H](NC(=O)N[C@@H](CCC(=O)O)C(=O)O)C(=O)O)cn2)nn1)C[B-](F)(F)[18F] [^18F-HTK01130] , please?
24.1

Please do the same for C[N+](C)(Cc1cn(CC(=O)NC[C@H]2CC[C@H](C(=O)N[C@@H](Cc3ccc4ccccc4c3)C(=O)NCCCC[C@H](NC(=O)N[C@@H](CCC(=O)O)C(=O)O)C(=O)O)CC2)nn1)C[B-](F)(F)[18F] [^18F-HTK01157] as well.
49.7

Cited source: patent US10882871B2
